- Test system: NCI-H441 (Lung Adenocarcinoma)
- ASSAY EXPLANATION: combination Emax (second highest fraction inhibited in the dose matrix, 72 h); higher = more inhibition; extreme values may be limits of the assay
Classify by measured combination Emax: condition met if it is equal to or exceeds 0.4, condition not met if it is smaller.

>  <MOLECULE>
C[C@@H](c1ccc2nccn2c1)n1nnc2ncc(-c3cnn(C)c3)nc21 [Savolitinib] + CC1(C)CCC(CN2CCN(c3ccc(C(=O)NS(=O)(=O)c4ccc(NCC5CCOCC5)c([N+](=O)[O-])c4)c(Oc4cnc5[nH]ccc5c4)c3)CC2)=C(c2ccc(Cl)cc2)C1 [Venetoclax] (first compound max 1 µM, 7x7, partner max 1 µM)

>  <CAT>
condition not met

$$$$
>  <MOLECULE>
CN(CCO)CC[C@H](CSc1ccccc1)Nc1ccc(S(=O)(=O)NC(=O)c2ccc(N3CCC([C@@H](O)c4ccccc4-c4ccc(Cl)cc4)CC3)cc2)cc1S(=O)(=O)C(F)(F)F [AZD4320] + C[C@@H]1COCCN1C2=NC(=NC(=C2)C3(CC3)[S@](=N)(=O)C)C4=C5C=CNC5=NC=C4 [AZD6738] (first compound max 1 µM, 7x7, partner max 10 µM)

>  <CAT>
condition met

$$$$
>  <MOLECULE>
Cn1cnc2c(F)c(Nc3ccc(Br)cc3Cl)c(C(=O)NOCCO)cc21 [Selumetinib] + CC(C)n1c(=O)n(C)c2cnc3cc(F)c(-c4ccc(OCCCN5CCCCC5)nc4)cc3c21 [AZD1390] (first compound max 10 µM, 7x7, partner max 0.3 µM)

>  <CAT>
condition not met

$$$$
>  <MOLECULE>
CN(C)CCCOc1ccc(-c2ccc3ncc4c(c3c2)n(C2CCOCC2)c(=O)n4C)cn1 [AZD0156] + C[C@@H]1COCCN1C2=NC(=NC(=C2)C3(CC3)[S@](=N)(=O)C)C4=C5C=CNC5=NC=C4 [AZD6738] (first compound max 1 µM, 7x7, partner max 10 µM)

>  <CAT>
condition met

$$$$
>  <MOLECULE>
CC1(C)CCC(CN2CCN(c3ccc(C(=O)NS(=O)(=O)c4ccc(NCC5CCOCC5)c([N+](=O)[O-])c4)c(Oc4cnc5[nH]ccc5c4)c3)CC2)=C(c2ccc(Cl)cc2)C1 [Venetoclax] + Cc1cc2ncnn2cc1Nc1ncc2c(n1)n(C1CCOCC1)c(=O)n2C [AZD7648] (first compound max 1 µM, 7x7, partner max 10 µM)

>  <CAT>
condition not met

$$$$
>  <MOLECULE>
COc1nnc2ccc(N3CCC(c4ccc(OCCN5CCN(C)C(=O)[C@H]5C)cc4)CC3)nn12 [AZD5153] + CCN(CCO)CCCOc1ccc2c(Nc3cc(CC(=O)Nc4cccc(F)c4)[nH]n3)ncnc2c1 [AZD2811] (first compound max 1 µM, 7x7, partner max 1 µM)

>  <CAT>
condition not met

$$$$
